- Procedure summary: Ex vivo OX1R receptor occupancy autoradiography in rat brain (tenia tecta), with plasma bioanalysis
- Experimental parameters: male, Sprague-Dawley, plasma, 3 mg/kg oral, 60 min, read-out: plasma concentration at plateau of occupancy
Quantity measured: concentration at 60 min

For reference, reported concentration at 60 min for O=C(c1cccc(F)c1-c1ncccn1)N1[C@@H]2CC[C@H]1[C@H](Nc1cnc(C(F)(F)F)cn1)C2 stands at ~311 ng/mL

---

- Target desc: human OX1R (Homo sapiens, UniProt O43613)
- Sequence (O43613 whole entry): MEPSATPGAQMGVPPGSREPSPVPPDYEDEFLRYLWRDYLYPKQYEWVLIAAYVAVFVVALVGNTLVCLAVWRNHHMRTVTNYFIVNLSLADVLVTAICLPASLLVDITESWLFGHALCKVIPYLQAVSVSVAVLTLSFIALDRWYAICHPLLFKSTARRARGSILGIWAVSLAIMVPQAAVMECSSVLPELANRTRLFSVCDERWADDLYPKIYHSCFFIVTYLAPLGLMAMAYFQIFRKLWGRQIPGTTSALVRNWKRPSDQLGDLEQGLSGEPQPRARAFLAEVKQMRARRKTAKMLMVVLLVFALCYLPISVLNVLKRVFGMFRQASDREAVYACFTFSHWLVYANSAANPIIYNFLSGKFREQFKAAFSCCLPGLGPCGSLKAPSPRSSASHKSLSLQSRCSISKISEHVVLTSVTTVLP
Quantity measured: Ki (µM)
Write the answer as a number in µM, unit excluded.

For reference, reported Ki for O=C(c1cccc(F)c1-c1ncccn1)N1[C@@H]2CC[C@H]1[C@H](Nc1cnc(C(F)(F)F)cn1)C2 [JNJ-54717793] stands at 0.0148
